# Measured on: T1, 4H780-bA
# T1 chain: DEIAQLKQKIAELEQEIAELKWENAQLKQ
# Run description: two-hybrid library CCNG1;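 also: natural log of median RNA to DNA barcode read ratio; higher means stronger binding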
Property: interaction score; scope: individual binders

{"Binder": "DEIAQLEQEIAELKQKNAELEWKIAQLKQ [4H118-bA]", "Assay value": 0.087}
{"Binder": "DEIAQLEQKNAELKQEIAELKWEIAQLEQ [4H457-bA]", "Assay value": -1.18}
{"Binder": "DKIAQLKQKNAELKQEIAELEWEIAQLKQ [4H3010-bA]", "Assay value": -1.79}
{"Binder": "DKIAQLKQENAELEQEIAELKWKIAQLKQ [4H2702-bA]", "Assay value": -1.04}

Turning now to a further binder:
Which interaction score is listed for DENAQLEQENAELEQEIAELEWKIAQLKQ [4H1158-bA] ? 0.459
